Method: Antiproliferative activity against human HT1080 cells after 3 days by MTT assay
Type: functional, cell-based
Experimental Context: HT-1080, 72 h
Observed Property: IC50 (µM)
# unit: µM | format: bare number

(Q) // lookup IC50 for CCS(=O)(=O)c1ccc(OC)c(Nc2ncc(-c3cc(-c4ccccn4)cc(-c4ccccn4)c3)o2)c1
(A) 2.43

* * *

Test system: HL-60
Method: Antiproliferative activity against human HL60 cells after 3 days by MTT assay
Format: functional, cell-based
Experimental Context: HL-60, 72 h
Observed Property: pIC50
// pIC50: -log10(molar conc.)

(Q) // fetch HL-60 pIC50 for CCS(=O)(=O)c1ccc(OC)c(Nc2ncc(-c3cc(-c4ccccn4)cc(-c4ccccn4)c3)o2)c1
(A) 4.75
